// reported pIC50 for each item listed
target: p110β/p85α (Homo sapiens, UniProt P42338); assay: PI3K β inhibition assay (TLC lipid kinase or HTRF); assay type: biochemical; details: read-out: PI3K β IC50
Sequence (P42338 whole entry, looked up): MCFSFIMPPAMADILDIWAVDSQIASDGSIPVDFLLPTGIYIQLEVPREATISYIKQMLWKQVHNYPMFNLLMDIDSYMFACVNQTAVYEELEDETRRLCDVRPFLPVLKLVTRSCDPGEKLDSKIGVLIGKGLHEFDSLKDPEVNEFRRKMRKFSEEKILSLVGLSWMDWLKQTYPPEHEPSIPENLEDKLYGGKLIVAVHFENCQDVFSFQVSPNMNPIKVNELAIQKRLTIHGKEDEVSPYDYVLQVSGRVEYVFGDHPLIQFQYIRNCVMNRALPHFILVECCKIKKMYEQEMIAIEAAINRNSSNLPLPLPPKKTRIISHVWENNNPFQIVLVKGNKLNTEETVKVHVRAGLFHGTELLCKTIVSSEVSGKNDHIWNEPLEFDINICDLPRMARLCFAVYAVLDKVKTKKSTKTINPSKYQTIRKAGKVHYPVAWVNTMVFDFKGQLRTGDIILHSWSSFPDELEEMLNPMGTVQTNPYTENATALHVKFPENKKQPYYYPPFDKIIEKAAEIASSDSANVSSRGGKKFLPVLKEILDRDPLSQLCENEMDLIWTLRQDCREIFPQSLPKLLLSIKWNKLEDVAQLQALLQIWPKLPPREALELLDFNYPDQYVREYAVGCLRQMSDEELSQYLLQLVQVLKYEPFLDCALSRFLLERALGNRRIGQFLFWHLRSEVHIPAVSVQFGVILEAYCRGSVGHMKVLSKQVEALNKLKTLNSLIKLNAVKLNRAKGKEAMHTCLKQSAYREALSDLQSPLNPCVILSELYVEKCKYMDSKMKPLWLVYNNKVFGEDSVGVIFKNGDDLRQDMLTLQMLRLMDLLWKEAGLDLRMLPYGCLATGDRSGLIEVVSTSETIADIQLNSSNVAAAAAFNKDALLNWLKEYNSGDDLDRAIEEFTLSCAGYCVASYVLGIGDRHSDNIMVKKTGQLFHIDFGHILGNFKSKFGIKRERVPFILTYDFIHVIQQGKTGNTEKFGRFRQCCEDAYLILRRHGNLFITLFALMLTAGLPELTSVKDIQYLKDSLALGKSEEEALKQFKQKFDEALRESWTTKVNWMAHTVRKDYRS
pIC50: −log10 of the molar value.

What value of pIC50 has been reported for the following compound? "CC(=O)Nc1nc2ccc(-c3nn(Cc4cc5ccccc5nc4CCN4CCCC4)c4ncnc(N)c34)cc2s1"
< 6.00

# query: pIC50 of entry "Cc1ccncc1-c1nc2ccccc2cc1Cn1nc(-c2cc(O)cc(F)c2)c2c(N)ncnc21"
< 6.00

Given "CC(=O)Nc1nc2ccc(-c3nn(Cc4cc5ccccc5nc4-c4ccccc4C)c4ncnc(N)c34)cc2s1" , state its recorded pIC50.
< 6.00

Given the entry "Cc1ccccc1-c1nc2ccccc2cc1Cn1nc(-c2ccc3nc(N)ccc3c2)c2c(N)ncnc21" , report its measured pIC50.
< 6.00

###

IC50 values, listed per item
biological target: p110α/p85α (Homo sapiens (Human)); assay: PI3K α inhibition assay (TLC lipid kinase or HTRF)

// solved cases for IC50 follow
[[record]]
compound = "CC(=O)Nc1nc2ccc(-c3nn(Cc4cc5ccccc5nc4N4CCCC4)c4ncnc(N)c34)cc2s1 [Compound 195]"
observation_type = "IC50"
reported_result = "< 100 nM"

[[record]]
compound = "Nc1ncnc2c1c(-c1ccc3cc[nH]c3c1)nn2Cc1cc2ccccc2nc1N1CCCC1"
observation_type = "IC50"
reported_result = "100 to 1000 nM"

[[record]]
compound = "Nc1ncnc2c1c(-c1cccc(O)c1)nn2Cc1cc2ccccc2[nH]c1=O"
observation_type = "IC50"
reported_result = "> 1000 nM"

[[record]]
compound = "Nc1ncnc2ccc(-c3nn(Cc4cc5ccccc5nc4-c4ccccc4)c4ncnc(N)c34)cc12"
observation_type = "IC50"
reported_result = "> 1000 nM"

[[record]]
compound = "Cc1cccc2cc(Cn3nc(-c4cccc(O)c4)c4c(N)ncnc43)c(N3CCCC3)nc12"
observation_type = "IC50"
reported_result = "> 1000 nM"

[[record]]
compound = "CC(c1cc2ccccc2nc1N1CCN(C)CC1)n1nc(-c2cc(O)cc(F)c2)c2c(N)ncnc21 (stereo not shown)"
observation_type = "IC50"
reported_result = "> 1000 nM"

[[record]]
compound = "Nc1ncnc2c1c(-c1ccc(O)nc1)nn2Cc1cc2ccccc2nc1-c1ccccc1F"
observation_type = "IC50"
reported_result = "> 1000 nM"

[[record]]
compound = "Nc1nc2ccc(-c3nn(Cc4cc5ccccc5nc4-c4ccccc4)c4ncnc(N)c34)cc2s1"
observation_type = "IC50"
reported_result = "> 1000 nM"


Lab request: please report IC50 under test system p110α/p85α (Homo sapiens (Human)) for "CCc1nc2ccccc2cc1Cn1nc(-c2ccc3nc(NC(C)=O)sc3c2)c2c(N)ncnc21"
> 1000 nM

I'm curious: which IC50 was measured for "Nc1nc2cc(-c3nn(Cc4cc5ccccc5nc4N4CCCC4)c4ncnc(N)c34)ccc2[nH]1" tested on p110α/p85α (Homo sapiens (Human))?
< 100 nM

Param readout= IC50; system= p110α/p85α (Homo sapiens (Human)); entry= "Nc1cc(-c2nn(Cc3cc4ccccc4nc3-c3ccccc3F)c3ncnc(N)c23)ccn1" ; returns value.
> 1000 nM

Entry "CCn1c(=O)c(Cn2nc(-c3cc(O)cc(F)c3)c3c(N)ncnc32)nc2ccccc21" , system p110α/p85α (Homo sapiens (Human)): what IC50 was measured?
> 1000 nM

// lookup IC50 | system=p110α/p85α (Homo sapiens (Human)) | key= "Nc1ncnc2c1c(-c1cccc(O)c1)nn2Cc1nc2ccccc2nc1N1CCCC1"
> 1000 nM

Test system p110α/p85α (Homo sapiens (Human)); read-out IC50; what value for "Nc1ncnc2c1c(-c1cccc(O)c1)nn2Cc1cc2ccccc2nc1-c1ccccc1F" ?
> 1000 nM

Value wanted: IC50 (p110α/p85α (Homo sapiens (Human))) of entry "Nc1ccc2cc(-c3nn(Cc4cc5ccccc5nc4-c4ccccc4)c4ncnc(N)c34)ccc2n1"
100 to 1000 nM

Write down the reported IC50 of "Nc1nc2cc(-c3nn(Cc4cc5ccccc5nc4-c4ccccc4F)c4ncnc(N)c34)ccc2o1" , test system: p110α/p85α (Homo sapiens (Human)).
> 1000 nM

###

target: p110α/p85α (Homo sapiens (Human), UniProt P42336); test: PI3K α inhibition assay (TLC lipid kinase or HTRF)
Sequence (P42336 whole entry): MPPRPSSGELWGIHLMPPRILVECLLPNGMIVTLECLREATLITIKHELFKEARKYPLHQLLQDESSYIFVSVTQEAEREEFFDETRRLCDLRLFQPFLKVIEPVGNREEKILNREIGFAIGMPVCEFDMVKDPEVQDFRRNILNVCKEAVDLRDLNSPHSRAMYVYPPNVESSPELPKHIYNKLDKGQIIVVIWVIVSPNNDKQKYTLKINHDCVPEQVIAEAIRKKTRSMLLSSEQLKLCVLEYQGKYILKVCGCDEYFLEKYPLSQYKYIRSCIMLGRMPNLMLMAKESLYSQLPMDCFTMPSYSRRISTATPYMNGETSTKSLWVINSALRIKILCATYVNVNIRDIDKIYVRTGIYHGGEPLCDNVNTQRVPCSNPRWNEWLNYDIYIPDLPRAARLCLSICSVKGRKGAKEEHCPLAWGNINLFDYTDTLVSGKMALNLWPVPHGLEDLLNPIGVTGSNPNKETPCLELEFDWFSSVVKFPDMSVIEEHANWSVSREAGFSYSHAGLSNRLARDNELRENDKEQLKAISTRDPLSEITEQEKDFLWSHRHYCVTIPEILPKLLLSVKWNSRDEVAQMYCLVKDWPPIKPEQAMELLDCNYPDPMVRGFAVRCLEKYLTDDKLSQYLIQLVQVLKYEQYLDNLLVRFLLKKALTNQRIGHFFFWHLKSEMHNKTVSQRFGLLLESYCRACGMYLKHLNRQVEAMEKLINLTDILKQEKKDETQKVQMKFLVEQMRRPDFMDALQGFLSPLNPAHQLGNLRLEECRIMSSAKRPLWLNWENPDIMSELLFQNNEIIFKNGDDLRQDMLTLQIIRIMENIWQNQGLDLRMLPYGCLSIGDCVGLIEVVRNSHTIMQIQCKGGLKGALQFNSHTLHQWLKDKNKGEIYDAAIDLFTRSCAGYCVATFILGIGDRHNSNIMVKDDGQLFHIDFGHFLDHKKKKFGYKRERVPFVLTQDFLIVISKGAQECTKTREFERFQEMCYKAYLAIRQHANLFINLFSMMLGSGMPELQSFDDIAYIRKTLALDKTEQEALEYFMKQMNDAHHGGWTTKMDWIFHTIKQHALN
Sequence (P27986 whole entry partner): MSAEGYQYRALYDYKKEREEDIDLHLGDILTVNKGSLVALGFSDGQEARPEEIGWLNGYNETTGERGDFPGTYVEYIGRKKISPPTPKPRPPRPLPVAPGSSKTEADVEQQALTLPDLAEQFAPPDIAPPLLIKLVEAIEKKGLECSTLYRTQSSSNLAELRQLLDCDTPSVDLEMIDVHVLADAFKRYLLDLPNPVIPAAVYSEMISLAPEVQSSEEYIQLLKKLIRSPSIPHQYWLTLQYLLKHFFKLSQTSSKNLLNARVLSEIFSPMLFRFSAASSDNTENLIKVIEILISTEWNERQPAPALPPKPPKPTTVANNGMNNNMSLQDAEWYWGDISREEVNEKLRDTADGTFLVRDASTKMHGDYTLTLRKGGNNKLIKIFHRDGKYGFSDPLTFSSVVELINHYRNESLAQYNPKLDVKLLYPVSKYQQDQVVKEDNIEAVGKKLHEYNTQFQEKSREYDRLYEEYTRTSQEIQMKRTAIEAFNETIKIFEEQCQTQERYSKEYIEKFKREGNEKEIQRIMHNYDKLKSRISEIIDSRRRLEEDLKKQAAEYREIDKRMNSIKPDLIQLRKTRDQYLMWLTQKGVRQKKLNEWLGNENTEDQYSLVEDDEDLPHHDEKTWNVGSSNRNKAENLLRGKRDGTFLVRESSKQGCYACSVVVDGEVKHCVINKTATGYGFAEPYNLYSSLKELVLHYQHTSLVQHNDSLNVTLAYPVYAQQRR
The entries below are paired with their reported IC50.

I'm curious: which IC50 was measured for "CC(=O)Nc1nc2ccc(-c3nn(Cc4cc5ccccc5nc4N4CCN(C)CC4)c4ncnc(N)c34)cc2[nH]1" tested on p110α/p85α (Homo sapiens (Human), UniProt P42336)?
> 1000 nM

Missing value: IC50, p110α/p85α (Homo sapiens (Human), UniProt P42336), entry "Cc1cccc2cc(Cn3nc(-c4cc(O)cc(F)c4)c4c(N)ncnc43)c(N3CCOCC3)nc12" . Fill in?
100 to 1000 nM

Give the reported IC50 for "CCN1CCN(c2nc3ccccc3cc2Cn2nc(-c3cc(O)cc(F)c3)c3c(N)ncnc32)CC1" (system: p110α/p85α (Homo sapiens (Human), UniProt P42336)).
> 1000 nM

Kindly state the measured IC50 obtained for "Cc1ccccc1-c1nc2ccccc2cc1Cn1nc(-c2ccc3cc(N)sc3c2)c2c(N)ncnc21" with p110α/p85α (Homo sapiens (Human), UniProt P42336).
> 1000 nM

###

Reported IC50 values for the following molecules.
molecular target: p110β/p85α (Homo sapiens); experiment: PI3K β inhibition assay (TLC lipid kinase or HTRF); assay type: biochemical; conditions: read-out: PI3K β IC50

Solved entries (count: 4):
[[record]]
molecule = "Nc1nc2cc(-c3nn(Cc4cc5ccccc5nc4-c4ccccc4F)c4ncnc(N)c34)ccc2o1 [Compound 137]"
reported_result = "> 1000 nM"

[[record]]
molecule = "CC(C)N1CCN(c2nc3ccccc3cc2Cn2nc(-c3cc(O)cc(F)c3)c3c(N)ncnc32)CC1 [Compound 69]"
reported_result = "> 1000 nM"

[[record]]
molecule = "Nc1ncnc2c1c(-c1cccc(O)c1)nn2Cc1cc2ccccc2nc1-c1ccccc1 [Compound 148]"
reported_result = "> 1000 nM"

[[record]]
molecule = "CC(=O)Nc1nc2ccc(-c3nn(Cc4cc5ccccc5nc4N(C)C(C)C)c4ncnc(N)c34)cc2s1 [Compound 151]"
reported_result = "100 to 1000 nM"


Look up IC50: Nc1nc2cc(-c3nn(Cc4cc5ccccc5nc4N4CCOCC4)c4ncnc(N)c34)ccc2o1 [Compound 141]
> 1000 nM

Need IC50 of Cc1ccccc1-c1nc2ccccc2cc1Cn1nc(I)c2c(N)ncnc21 [Compound 3] , thanks.
> 1000 nM

###

// reported IC50 per item
molecular target: p110β/p85α (Homo sapiens); assay: PI3K β inhibition assay (TLC lipid kinase or HTRF); assay type: biochemical; conditions: read-out: PI3K β IC50

[[record]]
compound = "Nc1ncnc2c1c(-c1cccc(O)c1)nn2Cc1cc2ccccc2nc1-c1ccccc1F [Compound 91]"
target_desc = "p110β/p85α (Homo sapiens)"
observation_type = "IC50"
reported_result = "> 1000 nM"

[[record]]
compound = "CC(=O)Nc1nc2ccc(-c3nn(Cc4cc5ccccc5nc4-c4ccccc4)c4ncnc(N)c34)cc2s1 [Compound 92]"
target_desc = "p110β/p85α (Homo sapiens)"
observation_type = "IC50"
reported_result = "> 1000 nM"

[[record]]
compound = "Cn1c(=O)c(Cn2nc(-c3cccc(O)c3)c3c(N)ncnc32)cc2ccccc21 [Compound 111]"
target_desc = "p110β/p85α (Homo sapiens)"
observation_type = "IC50"
reported_result = "> 1000 nM"


Fill blank: measured IC50 of the compound Cc1nccn1-c1cc2ccccc2cc1Cn1nc(-c2ccc3nc(N)sc3c2)c2c(N)ncnc21 [Compound 175] is ____.
> 1000 nM

Find the recorded IC50 belonging to CN1CCN(c2nc3ccccc3cc2Cn2nc(-c3cnc4[nH]ccc4c3)c3c(N)ncnc32)CC1 [Compound 74] and report it.
100 to 1000 nM

Recorded IC50 for CCC(c1cc2ccccc2nc1N1CCCC1)n1nc(-c2cccc(O)c2)c2c(N)ncnc21 (centres unmarked) [Compound 39] , please?
> 1000 nM

Suppose we examine the compound CC(=O)Nc1nc2ccc(-c3nn(Cc4cc5ccccc5nc4OC(C)C)c4ncnc(N)c34)cc2s1 [Compound 157] ; what IC50 value has been reported?
> 1000 nM

Look at this compound and give its reported IC50. Nc1nc2ccc(-c3nn(Cc4cc5ccccc5nc4-c4ccccc4F)c4ncnc(N)c34)cc2s1 [Compound 85]
> 1000 nM

Which IC50 value belongs to CN1CCN(c2nc3ccccc3cc2Cn2nc(-c3cc(O)cc(F)c3)c3c(N)ncnc32)CC1 [Compound 50] ?
< 100 nM
